cAMP EC50: recorded values
target: rat GLP-1 receptor (rat) (UniProt P32301); assay: cell-based or functional assay
Sequence (P32301 22-463): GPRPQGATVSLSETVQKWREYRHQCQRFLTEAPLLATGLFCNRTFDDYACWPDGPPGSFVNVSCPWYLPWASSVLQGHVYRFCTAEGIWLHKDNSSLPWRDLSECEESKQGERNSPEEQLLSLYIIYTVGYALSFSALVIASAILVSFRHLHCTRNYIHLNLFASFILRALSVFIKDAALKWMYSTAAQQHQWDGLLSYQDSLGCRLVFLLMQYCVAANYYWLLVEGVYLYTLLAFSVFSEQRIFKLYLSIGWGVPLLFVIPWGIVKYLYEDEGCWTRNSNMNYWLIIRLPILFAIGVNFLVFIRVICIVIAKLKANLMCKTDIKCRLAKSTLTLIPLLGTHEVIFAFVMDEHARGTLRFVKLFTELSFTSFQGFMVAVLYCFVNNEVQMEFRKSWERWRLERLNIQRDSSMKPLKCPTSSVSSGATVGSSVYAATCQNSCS
Give just the numeric value; nM need not be written.

INSERT INTO assay_data (binder, measuredvalue) VALUES
  ('IP312 (Fc fusion) YSEGTFISDVSSYMERQAIDEFIAWLLKGGAAAGGSGSTASSGSGSATGGGGAATHTCPPC', 5.4),
  ('IP302 (Fc fusion) YSEGTFISDYSIALAAAAQQDFVNWLLAGGGGGGGSGGGGSGGGGSGGGGSATHTCPPC', 7);

(Q) Please give the documented cAMP EC50 of IP381 (Fc fusion) YSEGTFTSDYSKLLEEEAVRLFIEYLLAGGGGGGSGGGGSGGGGSGGGGSATHTCPPC
(A) 0.027

(Q) Respond only with cAMP EC50 recorded for IP347 (Fc fusion) YSEGTFTSDYSKLLERQAIDEFIAILLKGGGGGGGSGGGGSGGGGSGGGGSGGGGSGGGGSA
(A) 0.087

(Q) Given the binder IP311 (Fc fusion) YSEGTFISDYSIALAAAAIDDFVNWLLAGGGGGGGSGGGGSGGGGSGGGGSATHTCPPC , write its reported cAMP EC50.
(A) 61
